Recorded EC50 values for a group of substances are listed next.
# Study system: human GLP-1 receptor (hGLP-1R) (Homo sapiens, UniProt P43220)
# Construct: expressed in transfected cells
# Sequence (P43220 24-463): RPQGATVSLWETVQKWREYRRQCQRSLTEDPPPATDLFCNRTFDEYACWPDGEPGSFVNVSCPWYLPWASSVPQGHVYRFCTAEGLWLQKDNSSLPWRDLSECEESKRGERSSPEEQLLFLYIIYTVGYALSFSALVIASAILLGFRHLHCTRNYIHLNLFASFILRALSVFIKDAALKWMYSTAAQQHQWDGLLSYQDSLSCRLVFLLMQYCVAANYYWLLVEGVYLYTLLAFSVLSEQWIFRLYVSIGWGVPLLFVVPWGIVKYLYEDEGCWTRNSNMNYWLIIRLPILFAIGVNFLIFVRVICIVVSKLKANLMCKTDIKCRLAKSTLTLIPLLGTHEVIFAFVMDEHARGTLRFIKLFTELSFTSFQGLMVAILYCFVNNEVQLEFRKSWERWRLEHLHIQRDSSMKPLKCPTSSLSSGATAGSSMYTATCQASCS
# Test protocol: GLP-1 receptor assay, method A (CRE-luciferase reporter, BHK cells)
# Assay type: cell-based
# Condition set: hGLP-1R Potency, 1% HSA, EC50, method A, in the presence of 1% HSA
Numbered stars: 1 amine (or outer) side, 2 acyl side, 3 side chain; on linkers, the order of the positions; unused ones are H or OH. Square brackets hold non-standard residues; d marks the D form. Side chains are listed from the residue outwards. * marks the point of attachment. C20 diacid = O=C(O)CCCCCCCCCCCCCCCCCCC(=O)*; C18 diacid = O=C(O)CCCCCCCCCCCCCCCCC(=O)*; γGlu = O=C(O)[C@H](CCC(=O)[*:2])N[*:1]; AEEA = NCCOCCOCC(=O)O; Aib = CC(C)(N)C(=O)O
Reported property: EC50 (nM)

[[record]]
substance = "Y[Aib]EGTFTSDYSILLEEQAAREFIEWLLAGGPSSGALQAPGQAPLASHLSTAQTQRLSAELHK([AEEA-AEEA-γGlu-C20 diacid])LATLPRTETGSGSP-NH2 [Compound 99]"
value_measured = 0.0362

[[record]]
substance = "H[Aib]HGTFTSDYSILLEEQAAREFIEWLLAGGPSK([AEEA-AEEA-γGlu-C18 diacid])GEASQLSTAALGRLSAELHGLATLPRTETGSGSP-NH2 [Compound 65]"
value_measured = 0.1

[[record]]
substance = "Y[Aib]EGTFTSDYSILLEEQAAREFIEWLLAGGPSSGAGQAPGQAPGASHLSTAQTQRLSAK([AEEA-AEEA-γGlu-C18 diacid])LHRLATLPRTETGSGSP-NH2 [compound 55]"
value_measured = 0.0453

[[record]]
substance = "Y[Aib]EGTFTSDYSILLEEQAAREFIEWLLAGGPSSGALAQTLAQTLASHLSTAQTQRLSAELHK([AEEA-AEEA-γGlu-C20 diacid])LATLPRTETGSGSP-NH2 [Compound 60]"
value_measured = 0.173

[[record]]
substance = "H[Aib]HGTFTSDYSILLEEQAAREFIEWLLAGGPSSGEASHLSTAALGRLSAELHRLK([AEEA-AEEA-γGlu-C18 diacid])TLPRTETGSGSP-NH2 [Compound 89]"
value_measured = 0.0295

[[record]]
substance = "Y[Aib]EGTFTSDYSILLEEQAAREFIEWLLAGGPSSGEASHLSTAQTQRLSAELHRLATLPK([AEEA-AEEA-γGlu-C18 diacid])TETGSGSP-NH2 [Compound 81]"
value_measured = 0.0514

[[record]]
substance = "H[Aib]HGTFTSDYSILLEEQAAREFIEWLLAGGPSSGEASHLSTAQTQRLSAELHK([AEEA-AEEA-γGlu-C18 diacid])LATLPRTETGSGAP-NH2 [Compound 85]"
value_measured = 0.0303

[[record]]
substance = "H[Aib]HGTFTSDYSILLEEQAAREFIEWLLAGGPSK([AEEA-AEEA-γGlu-C20 diacid])GAPPPSGGGEASELSTAALGRLSAELHELATLPRTETGSGSP-NH2 [Compound 16]"
value_measured = 0.238

[[record]]
substance = "Y[Aib]EGTFTSDYSILLEEQAAREFIEWLLAGGPSSGAGQAPGQAPGASHLSTAALARLSAELHK([AEEA-AEEA-γGlu-C18 diacid])LATLPRTETGSGSP-NH2 [Compound 114]"
value_measured = 0.126

[[record]]
substance = "H[Aib]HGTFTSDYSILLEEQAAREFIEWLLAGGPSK([γGlu-C18 diacid])GAPPPSGGGEASHLSTAQTARLSAELHRLADLPRTETGSGSP-NH2 [Compound 112]"
value_measured = 0.336

[[record]]
substance = "Y[Aib]EGTFTSDYSILLEEQAAREFIEWLLAGGPSSGAGQAPGQAPLASHLSTAQTQRLSAELHK([AEEA-AEEA-γGlu-C18 diacid])LATLPRTETGSGSP-NH2 [compound 58]"
value_measured = 0.0256

